Measurement notes: Displacement of [3H]AMPA from AMPA receptor in rat cortical membrane
Type: cell membranes
Attribute measured: log10 Ki (log10 of the value in nM)
A difference of one corresponds to tenfold Ki; all values are log10 with Ki in nM.

Some molecules with known log10 Ki results, for comparison:
For the molecule O=C(O)[C@@H]1C[C@H]2C[C@@H](CCc3nn[nH]n3)CC[C@H]2CN1 [TEZAMPANEL ANHYDROUS] , what log10 Ki is on record?
2.83

// next record Oc1nc2ccc(-n3ccnc3)cc2nc1O
3.20

Ok, now O=C(O)Cn1c(=O)c(=O)[nH]c2cc([N+](=O)[O-])c(-n3ccnc3)cc21
1.98

Required: log10 Ki, one value per molecule below.
1. O=c1[nH]c2cc(-n3ccnc3)c([N+](=O)[O-])cc2[nH]c1=O [YM-90K]
2. N#Cc1ccc2nc(O)c(O)nc2c1
3. Oc1nc2cc(-n3ccnc3)c(-n3ccnc3)cc2nc1O
4. O=[N+]([O-])c1ccc2nc(O)c(O)nc2c1

1. 1.92
2. 3.70
3. 2.91
4. 3.30
